pIC50: −log10 of the molar value.
// HDAC8 (Homo sapiens, UniProt Q9BY41) pIC50 records
measurement-name: pIC50

P = C/C=C1\NC(=O)c2nc(ccc2F)CCNC(=O)C[C@@H](/C=C/CCSC(C)=O)OC(=O)[C@H](C(C)C)NC1=O [Compound 103]
Q = C/C=C1\NC(=O)c2cccc(n2)CNC(=O)C[C@@H](/C=C/CCSC(=O)CC)OC(=O)[C@H](C(C)C)NC1=O [Compound 6]
R = C/C=C1\NC(=O)c2cccc(n2)CNC(=O)C[C@@H](/C=C/CCSC(=O)CCCCCC)OC(=O)[C@H](C(C)C)NC1=O [Compound 2]
[in] Arrange by pIC50, high to low. API: response body holds the labels in the requested order.
[out] P, Q, R

* * *

System: A549 (human lung cancer cells)
Assay: MTT cancer cell growth inhibition
Type: cell-based
Details: Homo sapiens, A549, 72 h, MTT, 72 hours; present invention; read-out: GI50 A549, a
measurement-name: GI50 (nM)

C/C=C1\NC(=O)c2cccc(n2)CNC(=O)C[C@@H](/C=C/CCSC(=O)CCCCCCC)OC(=O)[C@H](CC)NC1=O: 80
C/C=C1\NC(=O)c2cccc(n2)CNC(=O)C[C@@H](/C=C/CCSC(=O)CCCCCCC)OC(=O)[C@@H](C)NC1=O: 510

a = C/C=C1\NC(=O)c2cccc(n2)CNC(=O)C[C@@H](/C=C/CCSC(=O)CCCCCCC)OC(=O)CNC1=O
b = C/C=C1\NC(=O)c2cccc(n2)CNC(=O)C[C@@H](/C=C/CCSC(=O)CCCCCCC)OC(=O)[C@H](C(C)(C)C)NC1=O
c = CCCCCCCC(=O)SCC/C=C/[C@@H]1CC(=O)NCc2cccc(n2)C(=O)NC(CC)C(=O)N[C@@H](C(C)C)C(=O)O1 (some centres unmarked)
[in] Order the entries by their reported GI50, beginning at the minimum. API: response body holds the labels in the requested order.
[out] a, c, b
(a: 34 nM, c: 110 nM, b: 420 nM)

* * *

System: HT1080 (human fibrosarcoma cells)
Experiment: MTT cancer cell growth inhibition
Type: cell-based
Settings: Homo sapiens, HT-1080, 72 h, MTT, 72 hours incubation; read-out: GI50 HT1
measurement-name: GI50 (nM)

C/C=C1\NC(=O)c2ccc(F)c(n2)CNC(=O)C[C@@H](/C=C/CCS)OC(=O)[C@H](C)NC1=O [Compound 114]: 100

A = CC(=O)SCC/C=C/[C@@H]1CC(=O)NCc2nc(ccc2F)C(=O)NC(=C(C)C)C(=O)N[C@@H](C(C)C)C(=O)O1 [Compound 89]
B = C/C=C1\NC(=O)c2cccc(n2)CNC(=O)C[C@@H](/C=C/CCSC(=O)CCCCCCC)OC(=O)[C@H](CC)NC1=O [Compound 9]
[in] Input pair: A , B . Output: entry with lower GI50. To answer, give the label that identifies your chosen option.
[out] B
(B: 40 nM, A: 80 nM)

* * *

Tested on: N-87 (human gastric cancer cells)
Assay: MTT cancer cell growth inhibition
Format: cell-based
Details: Homo sapiens, 72 h, MTT, 72 hours incubation, N-87 cells; read-out: GI50 N-87
measurement-name: GI50 (nM)

C/C=C1\NC(=O)c2nc(ccc2F)CNC(=O)C[C@@H](/C=C/CCSC(C)=O)OC(=O)[C@H](CCCCN)NC1=O [Compound 72]: 61
C/C=C1\NC(=O)c2nc(ccc2SCC)CNC(=O)C[C@@H](/C=C/CCSC(=O)CCCCC)OC(=O)[C@H](C(C)C)NC1=O [Compound 253]: 35
C/C=C1\NC(=O)c2cccc(n2)CNC(=O)C[C@@H](/C=C/CCSC(=O)CCCCCCC)OC(=O)[C@H](Cc2cccc3ccccc23)NC1=O [Compound 239]: 46
C/C=C1\NC(=O)c2nc(ccc2SC)CCNC(=O)C[C@@H](/C=C/CCSC(C)=O)OC(=O)[C@H](C(C)C)NC1=O [Compound 223]: 75
C/C=C1\NC(=O)c2cc(SC)cc(n2)CNC(=O)C[C@@H](/C=C/CCSC(=O)CCCCCCC)OC(=O)[C@H](CC)NC1=O [Compound 172]: 84
C/C=C1\NC(=O)c2nc(ccc2SC)CNC(=O)C[C@@H](/C=C/CCS)OC(=O)[C@H](CC)NC1=O [Compound 229]: 77

a = C=C1NC(=O)c2cc(F)cc(n2)CNC(=O)C[C@@H](/C=C/CCSC(C)=O)OC(=O)[C@H](C)NC1=O [Compound 91]
b = C=C1NC(=O)c2nc(ccc2SC)CNC(=O)C[C@@H](/C=C/CCSC(C)=O)OC(=O)[C@H](C(C)C)NC1=O [Compound 204]
[in] Input pair: a , b . Output: entry with lower GI50. To answer, give the label that identifies your chosen option.
[out] b

Attribution: patent US10065990B2
